test_name: Selectivity ratio of IC50 for human HFF to IC50 for human MCF7 cells
Assay type: toxicity
reported_conditions: HFF cells versus MCF7 cells, read-out: Ratio IC50
value_type: selectivity ratio

Return reported selectivity ratio; argument: COc1cc(OC)c(C(=O)/C=C/c2ccc(Br)cc2)c(OCC=C(C)C)c1
3

----------
test_name: Selectivity ratio of IC50 for human HFF to IC50 for human HCT116 cells
Type: toxicity
reported_conditions: HFF cells versus HCT116 cells, read-out: Ratio IC50
value_type: selectivity ratio
Simply state the number, no unit and no words.

Return reported selectivity ratio; argument: COc1cc(OC)c(C(=O)/C=C/c2ccc(Br)cc2)c(OCC=C(C)C)c1
3
